Tested on: A-375
Experiment: Antiproliferative activity against human A375 cells after 72 hrs by CTG solution based luminescence assay
Format: functional, cell-based
Details: A-375, 72 h
Parameter: IC50 (nM)
Output spec: scalar in nM, unitless text.

Specify IC50 for `Cc1ccc(C(=O)Nc2ccc(C(F)(F)F)c(Cl)c2)cc1NC(=O)C1(c2ccnc(NCCN3CCN(C)CC3)n2)CC1` , system A-375.
1070

* * *

The compounds listed here are annotated with their IC50.
Target: RAF proto-oncogene serine/threonine-protein kinase (Homo sapiens, UniProt P04049)
Sequence (P04049 whole entry): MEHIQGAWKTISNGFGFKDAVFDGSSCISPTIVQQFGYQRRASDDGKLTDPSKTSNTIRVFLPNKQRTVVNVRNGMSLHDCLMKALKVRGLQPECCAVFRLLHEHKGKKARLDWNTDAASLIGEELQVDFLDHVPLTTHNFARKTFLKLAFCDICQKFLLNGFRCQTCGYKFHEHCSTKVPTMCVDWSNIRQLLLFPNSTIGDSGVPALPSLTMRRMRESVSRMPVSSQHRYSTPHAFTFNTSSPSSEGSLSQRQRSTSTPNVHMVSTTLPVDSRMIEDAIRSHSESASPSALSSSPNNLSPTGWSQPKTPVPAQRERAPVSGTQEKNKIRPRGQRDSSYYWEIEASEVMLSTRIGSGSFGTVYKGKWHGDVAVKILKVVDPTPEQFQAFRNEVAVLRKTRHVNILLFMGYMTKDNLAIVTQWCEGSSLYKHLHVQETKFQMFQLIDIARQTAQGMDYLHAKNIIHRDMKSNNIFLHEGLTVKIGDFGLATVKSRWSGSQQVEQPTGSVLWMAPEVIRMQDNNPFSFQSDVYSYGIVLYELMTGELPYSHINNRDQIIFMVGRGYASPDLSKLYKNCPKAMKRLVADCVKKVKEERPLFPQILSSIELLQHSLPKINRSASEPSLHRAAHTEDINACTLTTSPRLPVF
Assay: Inhibition of CRAF (unknown origin)
Report the value in nM with no unit label.

Cc1ccc(C(=O)Nc2ccc(C(F)(F)F)c(Cl)c2)cc1NC(=O)C1(c2cc(NCCCN3CCN(C)CC3)ncn2)CC1 :: 13.3

Now consider a different compound.
Give IC50 for `O=S(=O)(NCCNc1nccc(-c2c(-c3ccc(F)cc3)nc3sccn23)n1)c1ccc(O)cc1`
40

* * *

Biological target: Serine/threonine-protein kinase A-Raf (Homo sapiens, UniProt P10398)
Sequence (P10398 whole entry): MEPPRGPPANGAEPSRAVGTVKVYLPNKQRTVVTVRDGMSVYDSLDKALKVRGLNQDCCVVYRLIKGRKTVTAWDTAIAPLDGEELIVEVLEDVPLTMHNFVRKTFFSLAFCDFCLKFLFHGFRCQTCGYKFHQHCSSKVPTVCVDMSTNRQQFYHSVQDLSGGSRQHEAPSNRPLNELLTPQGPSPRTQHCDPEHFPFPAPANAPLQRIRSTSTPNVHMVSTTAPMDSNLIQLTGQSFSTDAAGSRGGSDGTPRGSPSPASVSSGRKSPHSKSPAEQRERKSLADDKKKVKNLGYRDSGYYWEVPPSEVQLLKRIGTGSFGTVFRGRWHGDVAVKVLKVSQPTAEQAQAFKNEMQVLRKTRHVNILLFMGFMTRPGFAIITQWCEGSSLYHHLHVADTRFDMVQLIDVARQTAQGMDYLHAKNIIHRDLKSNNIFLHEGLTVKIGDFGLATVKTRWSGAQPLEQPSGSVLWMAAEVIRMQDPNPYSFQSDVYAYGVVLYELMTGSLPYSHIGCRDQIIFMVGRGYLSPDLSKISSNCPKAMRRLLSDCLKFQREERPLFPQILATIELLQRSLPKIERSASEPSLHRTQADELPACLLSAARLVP
Experiment: Inhibition of ARAF (unknown origin) after 20 mins in presence of 33P-gamma-ATP by hotspot kinase
Parameter: pIC50
In textbook form, pIC50 equals minus log to base ten of the concentration in mol/L.

State its pIC50: `Cc1ccc(C(=O)Nc2ccc(C(F)(F)F)c(Cl)c2)cc1NC(=O)C1(c2ccnc(NCCN3CCN(C)CC3)n2)CC1`
7.52

* * *

Target: Serine/threonine-protein kinase B-raf (Homo sapiens, UniProt P15056, V600E)
Sequence (P15056 2-766 V600E limits assumed): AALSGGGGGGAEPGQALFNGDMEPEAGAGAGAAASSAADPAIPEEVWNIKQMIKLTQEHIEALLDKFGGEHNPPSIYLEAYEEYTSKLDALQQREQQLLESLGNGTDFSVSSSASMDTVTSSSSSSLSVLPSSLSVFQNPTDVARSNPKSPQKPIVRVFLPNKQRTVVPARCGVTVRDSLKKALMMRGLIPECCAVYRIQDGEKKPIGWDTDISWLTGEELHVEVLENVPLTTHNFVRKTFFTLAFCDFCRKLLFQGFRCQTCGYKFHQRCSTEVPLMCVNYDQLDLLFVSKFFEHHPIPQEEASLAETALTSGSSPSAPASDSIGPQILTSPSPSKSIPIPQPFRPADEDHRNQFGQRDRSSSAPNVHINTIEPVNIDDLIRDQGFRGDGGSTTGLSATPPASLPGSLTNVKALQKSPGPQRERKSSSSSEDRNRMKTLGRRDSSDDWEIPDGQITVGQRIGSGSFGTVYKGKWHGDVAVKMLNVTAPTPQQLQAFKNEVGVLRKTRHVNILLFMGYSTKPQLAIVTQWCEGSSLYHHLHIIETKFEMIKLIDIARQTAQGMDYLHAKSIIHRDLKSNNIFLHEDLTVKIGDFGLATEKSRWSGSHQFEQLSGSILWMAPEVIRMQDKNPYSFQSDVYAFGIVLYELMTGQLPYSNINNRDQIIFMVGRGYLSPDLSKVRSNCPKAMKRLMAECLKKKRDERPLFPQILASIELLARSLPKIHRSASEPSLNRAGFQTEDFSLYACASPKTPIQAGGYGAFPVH
Assay: Inhibition of BRAF V600E mutant (unknown origin)
Parameter: pIC50
Give only the number. pIC50 is defined as minus log10 of concentration in molar units.

COc1cc2c(cnc3[nH]nc(C4CC4)c32)cc1-c1c(F)ccc(NS(=O)(=O)CCCF)c1F :: 8.15
CNc1cc2c(cn1)cc(-c1ccc(F)c(NC(=O)Nc3cc(C(C)(C)C)no3)c1)c(=O)n2C1CCOC1 (stereo unspecified) :: 6.00
O=S(=O)(NCCNc1nccc(-c2c(-c3ccc(F)cc3)nc3sccn23)n1)c1ccc(O)cc1 :: 7.72
Cc1ccc(C(=O)Nc2ccc(C(F)(F)F)c(Cl)c2)cc1NC(=O)C1(c2ccnc(NCCN3CCN(C)CC3)n2)CC1 :: 7.90

Field: next compound
In one line, give reported pIC50 of the entry O=S(=O)(c1ccc(F)cc1)N1CCCC(Nc2nccc(-c3c(-c4ccc(F)cc4)nc4sccn34)n2)C1 (stereo unspecified) .
7.64
